# test_name: protease stability score; higher = more stable; yeast display proteolysis, trypsin and chymotrypsin;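 note: relative to predicted unfolded state with 0 unfolded-like and 1 meaning tenfold more protease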
Assign class by protease stability score: not lower than 1 means true (1); lower than 1 means false (0).

Ask: Entry SEEEEMVKVALELLKHSLETGDERLMLRQIDPHAKFDVDGKEHHGRDVFREIEERVDVLHLDHVEIQHVHIQGNKLHIHLEMRSTFLFNGRTFHYRLHYEIIMFKFNGKWLITSLQLR : is its protease stability score no less than 1?
Result: false (0)

Ask: How about HELEHELEKFMQWIIEFLETGDEDALSTLLDPNVRYVINGQNLHGRSLLITTLHRLKEEIRVHWKIRDLKIQGDKAHSDGRFTIIVNGRKHSVDSHINVTIVDGRIHRVEIELR ?
Result: true (1)

Ask: How about SEVEEDIRKWLKEHTDSIRTGDEERMLRNMDPHVRVDIDGVEHHGWEHLEEFIHRLTKKIKNMRVDWHRVRFQGDKAEIDGELDIDGRVTHVHIHSIKVDGRWYIKEIYIT ?
Result: true (1)

Ask: How about SEDDEDVERAAKLMLHILRTGDERHLHEYLDPNVRSIVNGREFHGRESLLHVMTLQMRELGIDHINVRRVKYDEDEVHFFMNVNINGQHREVIFRAKKINGRWIFHEVELR ?
Result: true (1)

Ask: How about DEDHEHLERHTRLFLERWRTGDEETLLKLFDPHARSEYGDKHHVGREEVTKLMVIILEKVKGLTIRRLRIKHIEYVDGRAHMDMEVTSEIDGQEVIESVHILMTKVDGRWRIQRVILV ?
Result: false (0)

Ask: How about SEEEDLHRHIMRLFLEWVLTGDEEDLYHFADPHTQFRYGDYELHGMEKIVEEILRFTHELRITHFTIHQMDVFNGKAESDVEWHKDVNGQEVRFRLKLILIVINGRTKSIEIRHK ?
Result: true (1)

###

# test_name: protease stability score; higher = more stable; yeast display proteolysis, trypsin and chymotrypsin;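 note: relative to predicted unfolded state with 0 unfolded-like and 1 meaning tenfold more protease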
measurement_name: protease stability score
Just the number, please, no unit attached.

EEERRDAEIALTVIEHHWETGDEKDLDEMLDPDVRVIINGQRYHGREWLSRFREDLGATYHDVHVDDIRIYDGRVEMDFHVRGKVGDKERDTRVRIFMIKFDGRWVVEQITLE : 1.95
SEDEERTRRISKHMLELYKTGDEDTWIKEADPNTINKIHAENHRIENHGREEVHKVLVELWERLGVKHVDLKDFDMQGEKVIIFIELRAENRIVTNIIRIVIIDGKIKSIEIELRFI : 1.21

Ask: Which measured protease stability score value corresponds to SELHKHVKHLAEHFWHLLETGDWEKMTKNADPNDRLDIHIGDKDIHNHGRERSLKTWTELEREMGIDHLTLRHRDLQGDKVIIHTESVFDGRHVKVEIIVVVINGRLKRVEVRFE ?
Result: 0.767

###

# test_name: protease stability score; higher = more stable; yeast display proteolysis, trypsin and chymotrypsin;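 note: relative to predicted unfolded state with 0 unfolded-like and 1 meaning tenfold more protease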
measurement_name: protease stability score
Just the number, please, no unit attached.

// below: answered sequences
SEERHLEELMYKWVRQMIETGDEDLERKLADPHVRSDINGVDLHGREEMIKEIKRLEDWLGIDHREFKTITFINGRIHVHIKLNVNGKDIKSIHIYDVIDGRLKEVSVRFR : 1.19
SEEHKVAQHAIEIEEHVWHTGDERMLHELFDPDARLIINGQEFHGREELHRFREEMRITHMRTKEVRVQGDKMEIHVRVDVDINGKRTDIRVIIISRKVDGRWINTEIEFR : 0.734
DHKEARDVAQTMMHLLKHGDFEQIVRNADPNAHFVVGDKEYHGRDNLRKVLKRLHDQVDHISFRTYKVDEDTAKLDATVQINGRNYRMDVLVHFHNGRIKDLNIKVTDEDTQREADK : 1.57
TELEEDIVRAWERFVRSLETGNERSIRELMDPNPRIVIGDYEFHGREAIEELLRRIDVIKSVELRHFRLQGEKARLDTTETGHIDGRDVTYETRIISLKVNGVWVLKRIEVR : 1.53
DEEEHDVEVAFREYVKSTKTGDEDTLRHLADPHVKIWVDGRDFHGREVYYRLEKKIMEEWRFHDMHVEHVLVQGNKMTLHTRIDGEFDGKKVNLEVIIISVKVDGQWMIHSLEHR : 2.22
SEDEKITKEATRIFLENLHTGDERTMDDNLDPNVLLIINGVELVGREFIVTWLKELRLKRQDIKSIDMRLINGVAHVFMDIHVEGNYNGRDRRSDEELRYIIRKIDGRWSIESVEIHIR : 1.22
SEEEEVAWEAVEILSTFILTGDFESLNKLFDPHVRVRIGDKELHGRETTNKIFRKEREEHGIEIRHIHVHDVHVINGRIHADVEHKIRINGKEDSRRVEWIIEKYNGRWIVREIRVH : 1.35
DDEEDHVREMFKLHWDNLRTGDFDKWMNLADPNVRFRYIFNGVDFEYHGRDFVSQILLEIRIDRISIHHVNIFEGHSEIDAHEETTYNGKKTERKVHIELIVFNGRIHELHVEIR : 0.682
DEDHHESHRALTELFKDLLTGDWKSSKELADPHARVDINGKEYHGREEMERFFKELWERLGIDHIDVKHIEIQGNKVISHLEIHVNGRTFNLIIIIDKVNGRWIIHSMKMDTE : 0.968
DEEEEKLRELIRIFIEDWKTGDFDSLAHLLDPNARLDIHINGVHLHYHGREKILEFLWRWFERFKNARVELKRIRIVNGRSEIDSETTFNGRSSDMEIDIVIINGRVRSERFKVG : 1.47

Next sequence, protease stability score to be filled in.
Ask: Which measured protease stability score value corresponds to DEERENAERMLKAWVEILETGDEHRISRLLDPNVQFQIGDKHLHGREDVLRHLSEMIKKVKNLTISIHSINIQGDKVHVDGHIHVNGVDHKNDLILLKVNGRWFVTSLKIE ?
Result: 1.78
